This section presents compounds with their documented inhibition at 10 µM values.
biological target: GPR73 (prokineticin 1 receptor) (Homo sapiens, UniProt Q8TCW9); construct: expressed in transfected cells; host or cells: HEK 293; test: PK1 functional assay: Ca2+ mobilization screening for PK1 antagonists on the FLIPR; assay type: cell-based; conditions: HEK293, 10 μM compound; HEK 293 GPR73 cells; multiple values = multiple testing; read-out: Ca^2+ Mobilization % Inh @ 10 μM
Sequence (Q8TCW9 whole entry, species assumed): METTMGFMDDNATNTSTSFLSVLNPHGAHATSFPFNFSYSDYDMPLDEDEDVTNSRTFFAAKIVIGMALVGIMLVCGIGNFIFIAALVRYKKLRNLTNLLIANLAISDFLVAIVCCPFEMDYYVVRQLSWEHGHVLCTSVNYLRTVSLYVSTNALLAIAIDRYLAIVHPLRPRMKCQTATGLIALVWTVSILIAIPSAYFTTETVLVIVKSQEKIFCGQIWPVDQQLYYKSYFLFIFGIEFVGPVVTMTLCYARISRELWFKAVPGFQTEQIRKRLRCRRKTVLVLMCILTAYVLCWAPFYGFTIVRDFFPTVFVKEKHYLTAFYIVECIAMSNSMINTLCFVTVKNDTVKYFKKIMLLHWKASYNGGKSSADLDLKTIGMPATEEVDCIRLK
I only need the number, in %, no unit after it.

For orientation, consider the following solved cases.
1. Nc1ncccc1CNc1nc(=O)n(Cc2ccc3snnc3c2)c(=O)n1Cc1ccc2c(c1)CCO2 [Cpd 242] : 95
2. Cc1cc(C)c(CNc2nc(=O)n(Cc3ccc(OC(F)F)cc3)c(=O)n2Cc2ccc(OC(F)F)cc2)cn1 [Cpd 163] : 38
3. COc1ccc(Cn2c(NCc3cccnc3N3CCCCC3)nc(=O)n(Cc3ccc(OC)cc3)c2=O)cc1 [Cpd 13] : 72
4. Nc1ncccc1CNc1nc(=O)n(Cc2ccc(F)cc2)c(=O)n1Cc1ccc(OC(F)(F)F)cc1 [Cpd 91] : 59
5. COc1ccc(Cn2c(=O)nc(NCc3cccnc3N)n(Cc3cccc(C#N)c3)c2=O)cc1 [Cpd 81] : 36

The reported inhibition at 10 µM of the compound Cc1cc(C)c(CNc2nc(=O)n(Cc3ccc4occc4c3)c(=O)n2Cc2ccc(OC(F)F)cc2)c(N)n1 [Cpd 175] was 96

The reported inhibition at 10 µM of the compound COc1ccc(Cn2c(OCc3cccnc3N)cc(=O)n(Cc3ccc(OC)cc3)c2=O)cc1 [Cpd 190] was 79

The reported inhibition at 10 µM of the compound CCCNc1ncccc1CNc1nc(=O)n(Cc2ccc(F)cc2)c(=O)n1Cc1ccc(OC)cc1 [Cpd 15] was 95
